Reported Relative Proliferation Fold Change NKL 1:2 values for a set of binders
- tested target: T1, orthogonal hCD122 receptor (hoRb), hCD122 with H133D and Y134F (human, UniProt P14784 27-550); note: reference of the scale not given here
- T1 sequence: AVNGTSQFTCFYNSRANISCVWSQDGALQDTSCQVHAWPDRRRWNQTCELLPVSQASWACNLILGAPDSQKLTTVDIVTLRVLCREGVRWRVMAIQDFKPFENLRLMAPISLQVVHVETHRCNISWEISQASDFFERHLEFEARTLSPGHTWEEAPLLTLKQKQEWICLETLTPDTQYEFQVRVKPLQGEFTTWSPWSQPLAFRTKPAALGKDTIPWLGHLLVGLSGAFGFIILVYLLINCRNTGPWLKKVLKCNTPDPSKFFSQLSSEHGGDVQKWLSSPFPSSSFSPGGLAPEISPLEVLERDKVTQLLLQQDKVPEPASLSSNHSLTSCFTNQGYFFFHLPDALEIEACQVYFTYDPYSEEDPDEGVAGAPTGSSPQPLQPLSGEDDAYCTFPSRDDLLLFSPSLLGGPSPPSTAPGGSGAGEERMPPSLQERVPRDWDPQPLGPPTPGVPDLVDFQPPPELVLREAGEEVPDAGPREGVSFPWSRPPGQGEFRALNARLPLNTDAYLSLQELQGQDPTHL
- procedure text: cell-based or functional assay
Please state the figure in fold; there is no need to write the unit.

SQVLSA (ligand) APTSSSTKKTQLQLSQLLVLLSAILNGINNYKNPKLTRMLTFKFYMPKKATELKHLQCLEEELKPLEEVLNLAQSKNFHLRPRDLISNINVIVLELKGSETTFMCEYADETATIVEFLNRWITFCQSIISTLT	2.1
L18Y, SQVLKA (ligand) APTSSSTKKTQLQLSQLYVLLKAILNGINNYKNPKLTRMLTFKFYMPKKATELKHLQCLEEELKPLEEVLNLAQSKNFHLRPRDLISNINVIVLELKGSETTFMCEYADETATIVEFLNRWITFCQSIISTLT	3.34
L18V, SQVLKA (ligand) APTSSSTKKTQLQLSQLVVLLKAILNGINNYKNPKLTRMLTFKFYMPKKATELKHLQCLEEELKPLEEVLNLAQSKNFHLRPRDLISNINVIVLELKGSETTFMCEYADETATIVEFLNRWITFCQSIISTLT	1.36

Could you now consider this next binder?
Query: Name the recorded Relative Proliferation Fold Change NKL 1:2 for T3N, SQVLKA (ligand) APNSSSTKKTQLQLSQLLVLLKAILNGINNYKNPKLTRMLTFKFYMPKKATELKHLQCLEEELKPLEEVLNLAQSKNFHLRPRDLISNINVIVLELKGSETTFMCEYADETATIVEFLNRWITFCQSIISTLT .
Response: 3.87
